# IC50 per record follows
TARGET: MRGPRX4 (Homo sapiens, UniProt Q96LA9)
Sequence (Q96LA9 whole entry): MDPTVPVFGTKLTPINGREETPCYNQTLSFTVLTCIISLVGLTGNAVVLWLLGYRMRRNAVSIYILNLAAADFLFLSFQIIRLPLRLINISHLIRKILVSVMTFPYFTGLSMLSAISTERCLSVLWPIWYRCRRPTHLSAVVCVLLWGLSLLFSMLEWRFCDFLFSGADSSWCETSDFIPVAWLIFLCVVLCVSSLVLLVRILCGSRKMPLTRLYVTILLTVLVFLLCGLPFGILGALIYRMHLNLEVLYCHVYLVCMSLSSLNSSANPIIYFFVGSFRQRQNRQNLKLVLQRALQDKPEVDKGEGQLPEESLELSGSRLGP
ASSAY_METHOD_TEXT: MRGPR X4 antagonist activity, IP-One Gq HTRF assay in stably transfected HEK cells (versus agonist bilirubin, deoxycholic acid, conjugated bilirubin, urobilin, obeticholic acid or BAR502)
Format: cell-based
Parameters: expressed in transfected cells; host or cells: HEK cells, stably transfected
MEASUREMENT_SETUP: versus 10 μM Bilirubin agonist; HEK cells expressing human MRGPR X4; read-out: MRGPR4 Antagonist Activity

| MOLECULE | IC50 |
| --- | --- |
| Cc1cc(COc2ccc(C(F)(F)F)c(Cl)c2)cc(C(=O)O)c1 | < 100 nM |
| O=C(O)c1cccc(COc2cc3ccccc3cc2Cl)c1 | 100 to 500 nM |
| CCc1cc(COc2ccc(C(F)(F)F)cc2Cl)nc(C(=O)O)c1 | < 100 nM |
| O=C(O)c1cccc(COc2ccc(C(F)(F)F)cc2Cl)c1 | < 100 nM |
| O=C(c1cccc(COc2ccc(C(F)(F)F)cc2Cl)c1)N1CCOC1 | 500 to 1000 nM |
| O=C(O)c1cccc(COc2ccc(Oc3ccccc3)cc2)c1 | > 2500 nM |
| O=C(NC1CCCC(O)C1)c1cccc(COc2ccc(C(F)(F)F)cc2Cl)c1 (stereo not drawn) | 500 to 1000 nM |
| CCOc1ccccc1OCc1cccc(C(=O)O)c1 | 1000 to 2500 nM |
| FC(F)(F)c1ccc(OCc2cccc(-c3cnc[nH]3)c2)c(Cl)c1 | 500 to 1000 nM |

---

TARGET: MRGPRX4 (Homo sapiens)
ASSAY_METHOD_TEXT: MRGPR X4 antagonist activity, IP-One Gq HTRF assay in stably transfected HEK cells (versus agonist bilirubin, deoxycholic acid, conjugated bilirubin, urobilin, obeticholic acid or BAR502)
Format: cell-based
Set-up: expressed in transfected cells; host or cells: HEK cells, stably transfected
MEASUREMENT_SETUP: versus 10 μM Bilirubin agonist; HEK cells expressing human MRGPR X4; read-out: MRGPR4 Antagonist Activity
pIC50: −log10 of the molar value.
RECORDED_ENDPOINT: pIC50

| COMPOUND | RECORDED_ENDPOINT | ASSAY_RESULT |
| --- | --- | --- |
| Cc1cc(OCc2cccc(C(=O)O)c2)ccc1C(F)(F)F [Compound 1-138] | pIC50 | < 5.60 |
| O=C(O)c1cncc(COc2ccc(Cl)cc2Cl)n1 [Compound 1-116] | pIC50 | 6.00 to 6.30 |
| CNC(=O)c1cccc(COc2ccc(C(F)(F)F)cc2Cl)c1 [Compound 52-26] | pIC50 | 6.30 to 7.00 |
| O=C(O)c1cccc(COc2ccc3ccoc3c2)c1 [Compound 1-128] | pIC50 | 6.00 to 6.30 |
| Cc1ccc(OCc2cccc(C(=O)O)c2)c(C)c1 [Compound 3-7] | pIC50 | 5.60 to 6.00 |
| CCCCNC(=O)c1cccc(COc2ccc(C(F)(F)F)cc2Cl)c1 [Compound 52-7] | pIC50 | 6.30 to 7.00 |
| O=C(O)CNC(=O)c1cccc(COc2ccc(C(F)(F)F)cc2Cl)c1 [Compound 54-2] | pIC50 | > 7.00 |
| O=C(O)c1cccc(COc2ccccc2C(F)F)c1 [Compound 33-1] | pIC50 | < 5.60 |
| O=C(O)c1cccc(COc2ccc(C(F)(F)F)nc2)c1 [Compound 1-102] | pIC50 | 5.60 to 6.00 |
| O=C(O)c1cccc(COc2ccc(Cl)c(Cl)c2F)c1 [Compound 1-149] | pIC50 | > 7.00 |

---

TARGET: MRGPRX4 (Homo sapiens)
ASSAY_METHOD_TEXT: MRGPR X4 antagonist activity, IP-One Gq HTRF assay in stably transfected HEK cells (versus agonist bilirubin, deoxycholic acid, conjugated bilirubin, urobilin, obeticholic acid or BAR502)
Type: cell-based
Set-up: expressed in transfected cells; host or cells: HEK cells, stably transfected
MEASUREMENT_SETUP: versus 50 μM urobilin; read-out: IC50 (Urobilin Agonist)
RECORDED_ENDPOINT: IC50

| QUERY_SMILES | TARGET | ASSAY_RESULT |
| --- | --- | --- |
| Cc1cc(COc2ccc(C(F)(F)F)cc2Cl)cc(C(=O)O)c1 | MRGPRX4 (Homo sapiens) | 35 nM |
| N#Cc1cc(COc2ccc(C(F)(F)F)cc2Cl)cc(C(=O)O)c1 | MRGPRX4 (Homo sapiens) | 8 nM |
| O=C(O)c1cccc(COc2ccc(C(F)(F)F)cc2Cl)n1 | MRGPRX4 (Homo sapiens) | 21 nM |
| O=C(O)c1cccc(COc2ccc(Cl)cc2C(F)(F)F)n1 | MRGPRX4 (Homo sapiens) | 7 nM |
| O=C(O)c1cccc(COc2ccc(C(F)(F)F)cc2Cl)c1 | MRGPRX4 (Homo sapiens) | 16 nM |
| Cc1cc(COc2ccc(C(F)(F)F)cc2C)cc(C(=O)O)c1 | MRGPRX4 (Homo sapiens) | 35 nM |
| Clc1ccc(OCc2cccc(-c3nnn[nH]3)c2)c(Cl)c1Cl | MRGPRX4 (Homo sapiens) | 6 nM |
| O=C(O)c1cccc(COc2ccc(Cl)cc2Cl)c1 | MRGPRX4 (Homo sapiens) | 230 nM |
| O=C(O)c1cc(COc2ccc(C(F)(F)F)cc2Cl)ccc1F | MRGPRX4 (Homo sapiens) | 41 nM |
| O=C(O)c1cc(F)cc(COc2ccc(C(F)(F)F)cc2Cl)c1 | MRGPRX4 (Homo sapiens) | 21 nM |
| CCc1cc(COc2ccc(C(F)(F)F)cc2Cl)nc(C(=O)O)c1 | MRGPRX4 (Homo sapiens) | 21 nM |
| N#Cc1cc(COc2ccc(Cl)cc2Cl)cc(C(=O)O)c1 | MRGPRX4 (Homo sapiens) | 6 nM |
| O=C(O)c1cccc(COc2ccc(C(F)(F)F)cc2Cl)c1F | MRGPRX4 (Homo sapiens) | 23 nM |
| O=C(O)c1cccc(COc2ccc(Cl)c(Cl)c2Cl)c1 | MRGPRX4 (Homo sapiens) | 13 nM |

---

# IC50 per record follows
TARGET: MRGPRX4 (Homo sapiens)
ASSAY_METHOD_TEXT: MRGPR X4 antagonist activity, IP-One Gq HTRF assay in stably transfected HEK cells (versus agonist bilirubin, deoxycholic acid, conjugated bilirubin, urobilin, obeticholic acid or BAR502)
Format: cell-based
Parameters: expressed in transfected cells; host or cells: HEK cells, stably transfected
MEASUREMENT_SETUP: versus 10 μM Bilirubin agonist; HEK cells expressing human MRGPR X4; read-out: MRGPR4 Antagonist Activity
RECORDED_ENDPOINT: IC50

| COMPOUND | ASSAY_RESULT |
| --- | --- |
| O=C(O)c1cccc(COc2ccccc2Cl)c1 [Compound 1-22] | > 2500 nM |
| O=C(O)c1cccc(COc2cccc(Br)c2)c1 [Compound 1-109] | 500 to 1000 nM |
| O=C(O)c1cccc(COc2ccc(OC(F)(F)F)cc2Cl)c1F [Compound 4-13] | < 100 nM |
| NC(=O)CNC(=O)c1cccc(COc2ccc(C(F)(F)F)cc2Cl)c1 [Compound 52-22] | 100 to 500 nM |
| Cc1ccc(OCc2cccc(C(=O)O)c2)c(C)c1F [Compound 1-60] | 500 to 1000 nM |
| O=C(O)c1cccc(COc2ccc(C(F)(F)F)c(Cl)c2)c1F [Compound 4-15] | < 100 nM |
| Cc1c(OCc2cccc(C(=O)O)c2)ccc2c1OCC2=O [Compound 1-154] | 100 to 500 nM |
| NC(=O)c1cccc(COc2ccc(C(F)(F)F)cc2Cl)c1 [Compound 45-1] | 100 to 500 nM |
| Cc1ccc(C(=O)O)cc1COc1ccc(Cl)cc1Cl [Compound 8-2] | 1000 to 2500 nM |
| O=C(O)c1cccc(COc2ccc(Cl)cc2)c1 [Compound 1-21] | 100 to 500 nM |
| CC(C)(C)c1ccccc1OCc1cccc(C(=O)O)c1 [Compound 1-144] | > 2500 nM |
| COc1cc(COc2ccc(C(F)(F)F)cc2Cl)cc(C(=O)O)c1 [Compound 2-2] | < 100 nM |
| O=C(O)c1cc(COc2ccc(C(F)(F)F)cc2Cl)cc(C(F)(F)F)c1 [Compound 4-20] | 100 to 500 nM |
| FC(F)(F)c1ccc(OCc2cccc(-c3nnn[nH]3)c2)cc1Cl [Compound 17-2] | < 100 nM |
| N#Cc1cccc(COc2ccc(C(F)(F)F)cc2Cl)c1 [Compound 17-1] | 100 to 500 nM |
| O=C(O)c1cc(C2CC2)cc(COc2ccc(C(F)(F)F)cc2Cl)n1 [Compound 8-3] | < 100 nM |
| O=C(O)c1cccc(COc2ccc(Cl)c(F)c2Cl)c1 [Compound 1-148] | < 100 nM |
| COc1cccc(OCc2cccc(C(=O)O)c2)c1 [Compound 1-39] | 100 to 500 nM |
| O=C(O)c1ccccc1COc1ccc(Cl)cc1Cl [Compound 1-114] | 1000 to 2500 nM |
| N#Cc1c(COc2ccc(Cl)cc2Cl)cccc1C(=O)O [Compound 4-6] | 100 to 500 nM |

Ref: patent US11840521B2
